From: PubChem BioAssay (NCI)

- Test system: SK-MEL-28 melanoma
- experiment.notes: NCI-60 one-dose screen, 48 h (100 = growth as untreated, 0 = no growth, -100 = all killed)
- particulars: 10 µM unless noted
- Experimental: Growth inhibition of the SK-MEL-28 human tumor cell line is measured as a screen for anti-cancer activity. Cells are grown in 96 well plates and exposed to the test compound for 48 hours. Compounds are tested at a single concentration, which is 10^-5 M for most compounds. The reported endpoint is percent growth (GI% or GIPRCNT), where numbers from 0 - 100% represent growth inhibition, and numbers from -100% - 0 represent cell death. For example, a value of 40 represents 60% growth inhibition. […]
About 83,000 compounds went through this panel and 20% of them were active in at least one assay; those are over-represented in the sample as a whole. Calls of active or inactive are those of the source. Rule for the calls: active = growth percent below 10; inactive = the rest.
measurement.kind: growth

CC(=O)Nc1cccc(-n2c(=O)n(C3CC3)c(=O)c3c(Nc4ccc(I)cc4F)n(C)c(=O)c(C)c32)c1
-4.75% (active)
O=C(O)c1ccc2c(c1)nc(Nc1cccc(Cl)c1)c1ccncc12
3.16% (active)
COC(=O)C1CCc2sc3ncnc(Nc4cn[nH]c4C(=O)Nc4ccc(CN5CCN(C)CC5)cc4)c3c21 (stereo not given)
23.5% (inactive)
O=C(Nc1ccc(C2=NCCCN2)cc1)c1ccc(C(=O)Nc2ccc(C3=NCCCN3)cc2)nc1
120% (inactive)
Nc1nc(N)c2cc(CNc3ccc(C(=O)NC(CC(=O)O)C(=O)O)cc3)ccc2n1 (stereo not given)
54.3% (inactive)
Cc1cc(Nc2nc(N[C@@H](C)c3ncc(F)cn3)ncc2Cl)n[nH]1
87.8% (inactive)
Cc1nn(-c2ccccc2)c2c1N=c1s/c(=C\c3cn(-c4ccccc4)nc3-c3ccc(Cl)cc3)c(=O)n1C(C)N2 (stereo not given)
118% (inactive)
CC(CCCC(=O)O)c1ccoc1 (stereo not given)
109% (inactive)
CNC(=O)c1ccc(Nc2ncc(C(F)(F)F)c(NCc3nccnc3N(C)S(C)(=O)=O)n2)cc1
1.14% (active)
Nc1c2c(c(O)c3c1=C(CO)C=N3)=NCCS2=O (stereo not given)
-17.4% (active)
C=CC(=O)Nc1cc2c(Nc3ccc(F)c(Cl)c3)ncnc2cc1OCCCN1CCOCC1
-19% (active)
C=CC(=O)Nc1cc2c(Nc3ccc(F)c(Cl)c3)ncnc2cc1C#CC(C)(C)N1CCN(C)CC1
-96.9% (active)
Cn1ncc(Cl)c1-c1cc(C(=O)N[C@H](CN)Cc2ccc(F)c(F)c2)oc1Cl
-77.1% (active)
C[C@@H](Nc1cc(F)cc(F)c1)c1cc(C(=O)N(C)C)cc2c(=O)cc(N3CCOCC3)oc12
46.3% (inactive)
COc1cc2c(c(OC)c1)C1c3ccccc3NC(=O)N1CC2 (stereo not given)
49.8% (inactive)
O=C1CC(c2cccc(F)c2)c2c(n[nH]c2-c2ccc(Cl)cc2)N1 (stereo not given)
107% (inactive)
Cc1c(N)ccc(-c2ccc(N)c(C)c2S(=O)(=O)O)c1S(=O)(=O)O
115% (inactive)
C=CC(=O)Nc1cccc(Nc2nc(Nc3ccc(N4CCN(C(C)=O)CC4)cc3OC)ncc2C(F)(F)F)c1
50.6% (inactive)
C[C@@H](NC(=O)c1ncnc(N)c1Cl)c1ncc(C(=O)Nc2cc(C(F)(F)F)c(Cl)cn2)s1
9.63% (active)
COc1ccc(-c2cc3c(C)nc(N)nc3n(C3CCC(OCCO)CC3)c2=O)cn1 (stereo not given)
-29.4% (active)

---

- Tested on: SW-620 colon
- experiment.notes: NCI-60 one-dose screen, 48 h (100 = growth as untreated, 0 = no growth, -100 = all killed)
- particulars: 10 µM unless noted
The panel holds about 83,000 compounds, 20% with a hit somewhere; the sample as a whole holds those more often.
// values below are reported growth
measurement.kind: growth (%)

CCC1(/C=N/NC(N)=S)NC(=O)NC1=O (stereo not given)
114
CCN1CCN(Cc2ccc(-c3cc4c(N[C@H](C)c5ccccc5)ncnc4[nH]3)cc2)CC1
13.1
C[N+](C)(CCOC(c1ccccc1)c1ccccc1)CC(=O)OCc1ccccc1
108
CN1CCN(c2nc(C3=C(c4c[nH]c5ccccc45)C(=O)NC3=O)c3ccccc3n2)CC1
48.4
COc1cc(CCc2cc(NC(=O)c3ccc(N4C[C@@H](C)N[C@@H](C)C4)cc3)n[nH]2)cc(OC)c1
28.7
Cc1ccc(-c2cc3c(SCC(=O)Nc4cc(C(F)(F)F)ccc4Cl)nccn3n2)cc1
18.2
CNC(=O)c1cc(Oc2cccc3nc(Nc4ccc(Oc5ccccc5)cc4)ccc23)ccn1
87.8
CC(CCCC(=O)O)c1ccoc1 (stereo not given)
110
O=C(c1ccccc1)C(c1ccccc1)N1CCOCC1 (stereo not given)
103
NC1(C(=O)N[C@@H](CCO)c2ccc(Cl)cc2)CCN(c2ncnc3[nH]ccc23)CC1
62.7

---

- Tested on: HT29 colon
- experiment.notes: NCI-60 one-dose screen, 48 h (100 = growth as untreated, 0 = no growth, -100 = all killed)
- particulars: 10 µM unless noted
- Description: Growth inhibition of the HT29 human tumor cell line is measured as a screen for anti-cancer activity. Cells are grown in 96 well plates and exposed to the test compound for 48 hours. Compounds are tested at a single concentration, which is 10^-5 M for most compounds. The reported endpoint is percent growth (GI% or GIPRCNT), where numbers from 0 - 100% represent growth inhibition, and numbers from -100% - 0 represent cell death. For example, a value of 40 represents 60% growth inhibition. […]
Compounds without any hit were thinned out: in the full panel of roughly 83,000, 20% have a hit.
// values below are reported growth
measurement.kind: growth (%)

C=CC(=O)N1CCC[C@@H](n2nc(-c3ccc(Oc4ccccc4)cc3)c3c(N)ncnc32)C1
30.1
COc1cc2c(cc1OCCCN1Cc3ccc(OCCCCC(=O)N4CCC(CCN5CCCC5)CC4)cc3C1)N=C(N)C21CCCC1
9.48
CC/C(=C(\c1ccc(OCCN2CCCCCCC2)cc1)c1ccc(OC(=O)C2CCCCC2)cc1)c1ccc(Cl)cc1
86.9
Cn1cc(-c2ccc(F)c(C(F)(F)F)c2)nc1C1CCN(c2ncnc3[nH]ncc23)CC1
60.8
N#Cc1c(-c2ccc(Cl)cc2)csc1NC(=O)Nc1cccc(C(F)(F)F)c1
13

---

- System: ACHN renal
- experiment.notes: NCI-60 one-dose screen, 48 h
- particulars: 10 µM unless noted
The panel holds about 83,000 compounds, 20% with a hit somewhere; the sample as a whole holds those more often. Active and inactive are the calls of the source. The calls were made as follows: active = growth percent below 10; inactive = the rest.
Classes used: active, inactive

CCn1c(-c2nonc2N)nc2c(C#CC(C)(C)O)ncc(OC[C@H]3CCCNC3)c21
inactive
COc1ccc(C(=O)N2c3ccccc3Sc3ccccc32)c(F)c1
inactive
Nc1c(Cl)cccc1[N+](=O)[O-]
inactive
O=C(NCCO)Nc1ccc(-c2nc(N3CCOCC3)c3cccn3n2)cc1
active
COc1c(OCCCN2CCOCC2)ccc2c3n(c(=NC(=O)c4cnc(N)nc4)nc12)CCN3
active
CNc1ncc2cc(-c3cc(NC(=O)NCCC(C)(C)C)c(F)cc3C)c(C)nc2n1
active
CC12O[C@H](C[C@@H](OC(=O)CCC(=O)O)[C@H]1O)n1c3ccccc3c3c4c(c5c6ccccc6n2c5c31)C(=O)NC4=O
inactive
CN1CCC(COc2cnc(-c3cccc(Cn4nc(-c5cccc(C#N)c5)ccc4=O)c3)nc2)CC1
inactive
CC(C)[C@@H]1CC[C@@H]2[C@@H]1[C@H](OC(=O)/C=C/c1ccccc1)[C@]1(C(C)C)C[C@@H](OC(=O)CO)[C@@]2(C)O1
inactive
OCCNC(=S)Nc1ccc(-c2nc(N3C[C@H]4CC[C@@H](C3)O4)c3cccn3n2)cc1
active
COc1ccc2c(CCCc3ccc(Cl)cc3Cl)c3[n+](cc2c1OC)CCc1cc2c(cc1-3)OCO2
inactive
Cn1ccnc1C(=O)/C=C/c1ccc(CC(=O)Nc2ccc(S(F)(F)(F)(F)F)cc2)cc1
active
COc1cc(Nc2c(C#N)cnc3cc(OCCCN4CCN(C)CC4)c(OC)cc23)c(Cl)cc1Cl
inactive
O=C(Nc1ccc(C(=O)Nc2ccc(C3=NCCCN3)cc2)cc1)Nc1ccc(C2=NCCCN2)cc1
inactive
CC(C)=CCc1cc2c(cc1O)C1=C(C(=O)C3=C(C1=O)S(=O)(=O)CCN3)C(C=C(C)C)O2 (centres undefined)
active
O=C(Nc1nc2cccc(-c3ccc(CN4CCS(=O)(=O)CC4)cc3)n2n1)C1CC1
inactive
CN(C)CCOC(=O)Nc1nc2ccc(Sc3ccccc3)cc2[nH]1
inactive
C#Cc1cccc(Nc2ncnc3cc(OCCOC)c(OCCOC)cc23)c1
inactive
COc1cc2c(Oc3ccc4[nH]c(C)cc4c3F)ncnc2cc1OCCCN1CCCC1
inactive

---

- System: HCC-2998 colon
- experiment.notes: NCI-60 one-dose screen, 48 h (100 = growth as untreated, 0 = no growth, -100 = all killed)
- particulars: 10 µM
Compounds without any hit were thinned out: in the full panel of roughly 83,000, 20% have a hit.
Rule: Fulfilled for growth not less than 80%, Not fulfilled for anything less.

Cc1cc2c3c(cccc3c1)C(=O)c1ccccc1-2
Fulfilled
COc1cc(F)c(F)c(Nc2ccc(I)cc2F)c1NS(=O)(=O)C1(C[C@H](O)CO)CC1
Not fulfilled
CCc1cc2c(c3ccc(C(=O)CBr)cc13)CCCC2
Fulfilled
COc1ccc(-n2c(=O)c3ccccc3n(Cc3ccc(C(=O)NO)cc3)c2=O)cc1
Not fulfilled
Cc1ccsc1C(NC(=O)c1ccccc1)c1cc(Cl)c2cccnc2c1O (stereo unspecified)
Not fulfilled
